Target: T1, recombinant human periostin (human, UniProt Q15063 22-836)
T1 construct: also called HuPOSTN; POSTN
T1 sequence: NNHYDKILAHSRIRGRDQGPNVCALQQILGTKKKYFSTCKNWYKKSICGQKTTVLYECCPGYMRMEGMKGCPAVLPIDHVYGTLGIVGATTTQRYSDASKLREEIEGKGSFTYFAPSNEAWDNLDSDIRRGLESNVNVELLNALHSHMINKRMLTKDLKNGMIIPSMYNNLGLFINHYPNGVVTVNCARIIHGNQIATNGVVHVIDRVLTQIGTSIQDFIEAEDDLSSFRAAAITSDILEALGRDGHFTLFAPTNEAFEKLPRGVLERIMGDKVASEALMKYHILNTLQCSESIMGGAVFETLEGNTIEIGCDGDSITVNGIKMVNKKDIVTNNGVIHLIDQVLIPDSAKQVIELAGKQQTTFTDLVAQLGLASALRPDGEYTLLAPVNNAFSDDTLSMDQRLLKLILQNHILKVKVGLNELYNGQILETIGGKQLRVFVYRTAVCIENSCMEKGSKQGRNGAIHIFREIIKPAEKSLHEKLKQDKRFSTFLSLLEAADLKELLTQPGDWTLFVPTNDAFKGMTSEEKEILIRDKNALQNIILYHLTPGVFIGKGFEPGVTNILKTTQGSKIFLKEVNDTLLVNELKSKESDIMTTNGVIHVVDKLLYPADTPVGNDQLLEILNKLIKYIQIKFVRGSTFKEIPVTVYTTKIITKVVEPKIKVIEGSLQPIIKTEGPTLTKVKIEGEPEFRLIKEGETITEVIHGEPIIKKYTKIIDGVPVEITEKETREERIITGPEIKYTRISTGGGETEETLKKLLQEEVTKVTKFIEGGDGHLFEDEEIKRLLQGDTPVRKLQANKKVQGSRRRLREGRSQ
Method Description: binding ELISA, periostin coated
Property: pEC50
Convention used: pEC50 is expressed as -log10 of the molar concentration.

1. NB1010 (N55Q) (antibody, V domains shown, Variant of NB0828 (IgG4PAA parent); the isotype of the variant is not restated) VH: QVQLVQSGAEVKKPGASVKVSCKASGYTFTSYGISWVRQAPGQGLEWMGWISAYQGNTNYAQKLQGRVTMTTDTSTSTAYMELRSLRSDDTAVYYCARDMLVVPFDYWGQGTLVTVSS VL: QSVLTQSSSASGTPGQTVTVSCSGSSSDIGSNRVNWYQQLPGTAPKLLIYSNDQRPSGVPDRFSGSKSGTSASLAISGLQSADEADYYCAAWDDSLSTYVFGSGTKVTVL :: 10.10
2. NB1003 (N55S) (antibody, V domains shown, Variant of NB0828 (IgG4PAA parent); the isotype of the variant is not restated) VH: QVQLVQSGAEVKKPGASVKVSCKASGYTFTSYGISWVRQAPGQGLEWMGWISAYSGNTNYAQKLQGRVTMTTDTSTSTAYMELRSLRSDDTAVYYCARDMLVVPFDYWGQGTLVTVSS VL: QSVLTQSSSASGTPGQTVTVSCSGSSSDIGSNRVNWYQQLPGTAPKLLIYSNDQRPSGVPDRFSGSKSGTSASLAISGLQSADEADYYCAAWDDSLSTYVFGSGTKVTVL :: 10.10

Moving on to the next binder.
[Q] # get_value(readout='pEC50', item= NB1011 (N55T) (antibody, V domains shown, Variant of NB0828 (IgG4PAA parent); the isotype of the variant is not restated) VH: QVQLVQSGAEVKKPGASVKVSCKASGYTFTSYGISWVRQAPGQGLEWMGWISAYTGNTNYAQKLQGRVTMTTDTSTSTAYMELRSLRSDDTAVYYCARDMLVVPFDYWGQGTLVTVSS VL: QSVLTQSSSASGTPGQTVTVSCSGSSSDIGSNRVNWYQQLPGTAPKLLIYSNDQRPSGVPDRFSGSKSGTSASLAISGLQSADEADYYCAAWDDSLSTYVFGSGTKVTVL )
[A] 10.15
